# ASSAY TARGET: UniProt P30291
# ASSAY PROCEDURE: Cell activity of Wee1 by p-CDK1Y15 ELISA assay in WiDr cells
# Assay type: cell-based
# PARTICULARS: amount of p-CDK1Y15, human colon adenocarcinoma cell line WiDr, 24 hours incubation
# Experimental: In the present disclosure, cellular assays were used to assess the biological activity of the compound. This assay was conducted using the human colon adenocarcinoma cell line WiDr. The activity of a specific Wee1 inhibitor was evaluated using p-CDK1Y15 ELISA assay method. The detailed assay method is described as follows: WiDr cells were cultured in Dulbecco's Modified Eagle's medium containing 10% FBS at 37° C. and 5% CO2. […] The optical density was measured using a spectrophotometer. […]
pIC50: −log10 of the molar value.
Hi, to clarify the labels: t covers pIC50 from 7 upward, f covers anything below 7.

Would you please look over these solved cases?
COMPOUND: CC(C)N1CCC(n2ccc3cc(Nc4ncc5c(=O)n6n(c5n4)-c4ccc5c(n4)N(CCC/C=C\C6)C(=O)CO5)ccc32)CC1 [Compound 3-7-7]
ASSAY TARGET: UniProt P30291
CLASSIFICATION: t
--
COMPOUND: CN1Cc2cc(Nc3ncc4c(=O)n5n(c4n3)-c3ccc4c(n3)N(CC/C=C\C5)C(=O)CO4)ccc2C2(CC2)C1 [Compound 3-2-3]
ASSAY TARGET: UniProt P30291
CLASSIFICATION: f

Now turn to the next compound.
Please check the record CN1CCN(c2ccc(Nc3ncc4c(=O)n5n(c4n3)-c3ccc4c(n3)N(CCC/C=C\C5)C(=O)CO4)cc2)CC1 [Compound 3-3-7] and state if its pIC50 is at or above 7.
f

----------
# ASSAY TARGET: Wee1 (Homo sapiens (Human))
# Sequence (P30291 whole entry): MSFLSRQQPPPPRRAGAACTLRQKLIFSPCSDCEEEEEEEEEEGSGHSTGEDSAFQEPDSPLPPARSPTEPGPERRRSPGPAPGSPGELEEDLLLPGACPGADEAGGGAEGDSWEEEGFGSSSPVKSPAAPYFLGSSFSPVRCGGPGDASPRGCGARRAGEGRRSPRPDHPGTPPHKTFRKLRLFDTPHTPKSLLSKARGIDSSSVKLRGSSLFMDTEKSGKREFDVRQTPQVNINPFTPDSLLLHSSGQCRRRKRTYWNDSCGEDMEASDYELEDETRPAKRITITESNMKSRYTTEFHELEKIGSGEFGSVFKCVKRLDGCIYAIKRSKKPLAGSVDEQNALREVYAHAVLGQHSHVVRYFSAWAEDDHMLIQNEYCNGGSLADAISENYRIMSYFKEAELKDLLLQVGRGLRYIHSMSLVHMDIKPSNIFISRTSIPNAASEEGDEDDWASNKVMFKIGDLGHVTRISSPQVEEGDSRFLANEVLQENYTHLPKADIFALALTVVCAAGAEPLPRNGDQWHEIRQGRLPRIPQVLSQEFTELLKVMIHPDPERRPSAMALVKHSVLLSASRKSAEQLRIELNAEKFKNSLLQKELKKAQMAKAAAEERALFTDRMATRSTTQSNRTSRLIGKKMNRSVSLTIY
# ASSAY PROCEDURE: Wee1 enzyme catalysis assay (ATP-Glo Max kinase luminescence detection kit)
# Assay type: biochemical
# PARTICULARS: Wee1 enzymatic activity, 10 μM ATP, Poly (Lys, Tyr) substrate, 30° C. for 50 minutes
Reported IC50 values for the following compounds.
Show the value, then the unit it is measured in.

Consider the following illustrative entries.
COMPOUND: CN1CCN(Cc2ccc(Nc3ncc4c(=O)n5n(c4n3)-c3ccc4c(n3)N(CCC/C=C\C5)C(=O)CO4)cc2)CC1 [Compound 3-3-6]
ASSAY TARGET: Wee1 (Homo sapiens (Human))
MEASURED RESULT: 24.8 nM
--
COMPOUND: CS(=O)(=O)CCN1CCC(n2ccc3cc(Nc4ncc5c(=O)n6n(c5n4)-c4ccc5c(n4)N(CCC/C=C\C6)C(=O)CO5)ccc32)CC1 [Compound 3-7-9]
ASSAY TARGET: Wee1 (Homo sapiens (Human))
MEASURED RESULT: 9.2 nM

Look up IC50 with Wee1 (Homo sapiens (Human)) for this compound: CC(=O)N1CC/C=C\Cn2c(=O)c3cnc(Nc4ccc5c(c4)CN(C)CC5(C)C)nc3n2-c2cccc1n2 [Compound 2-3-1]
10.7 nM

----------
# ASSAY TARGET: Wee1 (Homo sapiens (Human))
# ASSAY PROCEDURE: Wee1 enzyme catalysis assay (ATP-Glo Max kinase luminescence detection kit)
# Type: biochemical
# PARTICULARS: Wee1 enzymatic activity, 10 μM ATP, Poly (Lys, Tyr) substrate, 30° C. for 50 minutes
EXPERIMENTAL READOUT: IC50 (nM)
Answer in nM, number only, no unit symbol.

Consider the following illustrative entries.
COMPOUND: CN1CCN(c2ccc(Nc3ncc4c(=O)n5n(c4n3)-c3cccc(n3)OCC/C=C\C5)cc2)CC1
ENDPOINT UNIT: nM
IC50: 7.3
--
COMPOUND: CN1CCN(c2ccc(Nc3ncc4c(=O)n5n(c4n3)-c3ccc4c(n3)N(CCC/C=C\C5)C(=O)CO4)cc2F)CC1
ENDPOINT UNIT: nM
IC50: 7.6
--
COMPOUND: CN1CCN(c2ccc(Nc3ncc4c(=O)n5n(c4n3)-c3cccc(n3)OCCC/C=C\C5)cc2)CC1
ENDPOINT UNIT: nM
IC50: 32

Look up IC50 with Wee1 (Homo sapiens (Human)) for this compound: O=C1COc2ccc3nc2N1CCC/C=C\Cn1c(=O)c2cnc(Nc4ccc(N5CCN6CCCC6C5)cc4)nc2n1-3 (stereo not shown)
8.8

Look up IC50 with Wee1 (Homo sapiens (Human)) for this compound: `CN1Cc2cc(Nc3ncc4c(=O)n5n(c4n3)-c3ccc4c(n3)N(CC/C=C\C5)C(=O)CO4)ccc2C2(CC2)C1`
7.6

Look up IC50 with Wee1 (Homo sapiens (Human)) for this compound: `CN1Cc2cc(Nc3ncc4c(=O)n5n(c4n3)-c3ccc4c(n3)N(CCC/C=C\C5)C(=O)CO4)ccc2C(C)(C)C1`
2.4

Look up IC50 with Wee1 (Homo sapiens (Human)) for this compound: `CC(=O)N1CCC/C=C\Cn2c(=O)c3cnc(Nc4ccc5c(c4)CN(C)CC5(C)C)nc3n2-c2cccc1n2`
16.4

----------
# ASSAY TARGET: Wee1 (Homo sapiens (Human))
# ASSAY PROCEDURE: Wee1 enzyme catalysis assay (ATP-Glo Max kinase luminescence detection kit)
# Type: biochemical
# PARTICULARS: Wee1 enzymatic activity, 10 μM ATP, Poly (Lys, Tyr) substrate, 30° C. for 50 minutes
# Procedure: In the present disclosure, Wee1 enzyme catalysis assay was carried out using the ATP-Glo Max kinase luminescence detection kit (Promega). Kinase activity was assessed by quantitative detection of the amount of ATP retained in the solution following the kinase reaction. […] After the enzymatic reaction, 50 μL of ATP-Glo Max kinase luminescence detection assay solution (Promega) was added and incubated for 15 minutes at room temperature. The luminescent signal was measured using a microplate reader. […]
Reported log10 of IC50 values for the following molecules.
Quick note: numbers are log10 of IC50, with nM as the unit.

Consider the following illustrative entries.
MOLECULE: COc1cc(Nc2ncc3c(=O)n4n(c3n2)-c2ccc3c(n2)N(CCCC#CC4)C(=O)CO3)ccc1N1CCN(C)CC1 [Compound 10-1-3]
EXPERIMENTAL READOUT: log10 of IC50
MEASURED RESULT: 0.92
//
MOLECULE: CN1Cc2ccc(Nc3ncc4c(=O)n5n(c4n3)-c3cccc(n3)OCCOC/C=C/C5)cc2C(C)(C)C1 [Compound 1-3-2]
EXPERIMENTAL READOUT: log10 of IC50
MEASURED RESULT: 1.38
//
MOLECULE: CN1Cc2cc(Nc3ncc4c(=O)n5n(c4n3)-c3cccc(n3)OCC/C=C\C5)ccc2C2(CC2)C1 [Compound 1-2-1]
EXPERIMENTAL READOUT: log10 of IC50
MEASURED RESULT: 0.73
//
MOLECULE: CN1Cc2cc(Nc3ncc4c(=O)n5n(c4n3)-c3cccc(n3)OCC/C=C\C5)ccc2C(C)(C)C1 [Compound 1-3-1]
EXPERIMENTAL READOUT: log10 of IC50
MEASURED RESULT: 0.91

Look up log10 of IC50 with Wee1 (Homo sapiens (Human)) for this molecule: CN1Cc2cc(Nc3ncc4c(=O)n5n(c4n3)-c3ccc4c(n3)N(CCC/C=C\C5)C(=O)CO4)ccc2C2(CC2)C1 [Compound 3-2-2]
1.04

Look up log10 of IC50 with Wee1 (Homo sapiens (Human)) for this molecule: CN1Cc2cc(Nc3ncc4c(=O)n5n(c4n3)-c3ccc4c(n3)N(CCC/C=C\C5)CCO4)ccc2C2(CC2)C1 [Compound 8-2-1]
1.06

Look up log10 of IC50 with Wee1 (Homo sapiens (Human)) for this molecule: COc1cc(Nc2ncc3c(=O)n4n(c3n2)-c2ccc3c(n2)N(CCC/C=C/C4)C(=O)CO3)ccc1N1CCN(C)CC1 [Compound 3-3-11]
0.81

----------
# ASSAY TARGET: Wee1 (Homo sapiens (Human))
# ASSAY PROCEDURE: Wee1 enzyme catalysis assay (ATP-Glo Max kinase luminescence detection kit)
# Format: biochemical
# PARTICULARS: Wee1 enzymatic activity, 10 μM ATP, Poly (Lys, Tyr) substrate, 30° C. for 50 minutes
Reported pIC50 values for the following compounds.
Please keep in mind that pIC50 is minus log10 of the molar concentration; only the number is needed.

Consider the following illustrative entries.
COMPOUND: CN(C)CCn1ccc2cc(Nc3ncc4c(=O)n5n(c4n3)-c3cccc(n3)C(C)(O)CCC/C=C\C5)ccc21 (stereo not shown) [Compound 6-1-1]
pIC50: 6.81
--
COMPOUND: CN1CCN(c2ccc(Nc3ncc4c(=O)n5n(c4n3)-c3cccc(n3)OCCCC/C=C/C5)cc2)CC1 [Compound 1-1-1]
pIC50: 8.17
--
COMPOUND: CC1CN(c2ccc(Nc3ncc4c(=O)n5n(c4n3)-c3ccc4c(n3)N(CCC/C=C\C5)C(=O)CO4)cc2)CCN1C (stereo not shown) [Compound 3-3-3]
pIC50: 8.24
--
COMPOUND: CC(=O)N1CCCCC=CCn2c(=O)c3cnc(Nc4ccc(N5CCN(C)CC5)cc4)nc3n2-c2cccc1n2 [Compound 2-1-1]
pIC50: 7.12
--
COMPOUND: CN1Cc2cc(Nc3ncc4c(=O)n5n(c4n3)-c3ccc4c(n3)N(CCO4)C(=O)CC/C=C\C5)ccc2C(C)(C)C1 [Compound 8-1-1]
pIC50: 7.70

Given CN1Cc2cc(Nc3ncc4c(=O)n5n(c4n3)-c3ccc4c(n3)N(CCC/C=C\C5)C(=O)C(C)(C)O4)ccc2C2(CC2)C1 [Compound 7-1-1] , state its recorded pIC50.
7.89

Given CN1Cc2cc(Nc3ncc4c(=O)n5n(c4n3)-c3cccc(n3)N(C)CCC/C=C\C5)ccc2C(C)(C)C1 [Compound 9-1-1] , state its recorded pIC50.
7.93

Given CC(C)(C)OC(=O)N1CCC(n2ccc3cc(Nc4ncc5c(=O)n6n(c5n4)-c4ccc5c(n4)N(CCC/C=C\C6)C(=O)CO5)ccc32)CC1 [Compound 3-7-3] , state its recorded pIC50.
8.02

Given C=CCCCCN1C(=O)COc2ccc(-n3c4nc(SC)ncc4c(=O)n3CC=C)nc21 [Compound 3-1-1] , state its recorded pIC50.
8.31

Given CN1Cc2cc(Nc3ncc4c(=O)n5n(c4n3)-c3ccc4c(n3)N(CCC/C=C\C5)C(=O)CO4)ccc2C1=O [Compound 3-6-1] , state its recorded pIC50.
7.79
